This collection of values is drawn from the RNAGym collection of RNA variant scans (doi:10.1021/acssynbio.7b00057).

I'd be grateful if you could share measured aptazyme ON/OFF ratio for these entries.
B1: Pistol ribozyme (parent)
chain: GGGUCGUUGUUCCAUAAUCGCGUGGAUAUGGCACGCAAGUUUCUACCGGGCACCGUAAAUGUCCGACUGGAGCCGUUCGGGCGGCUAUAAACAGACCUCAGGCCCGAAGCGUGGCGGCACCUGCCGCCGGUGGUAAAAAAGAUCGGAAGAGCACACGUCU

variants of: B1; assay: aptazyme ON/OFF ratio, guanine; higher = stronger switching; co-transcriptional cleavage with and without guanine
Numbers only.

U7C U8C G9A U10C C12G C13G
1.21
U7C U8A U10A U11C C12G C13A
1.15
U7A U8G G9U C12G
1.64
G9U U10C C12G C13G
1.32
U7C U8C G9C C12A C13U
1.13

Give aptazyme ON/OFF ratio for each of the items listed below.
1. U7A U8C G9A U10C U11G C13G
2. U7G U8G G9A U10C C13G
3. U7A G9U U10C U11A C12A
4. G9U C12A

**A:**
[1.37, 1.12, 1.15, 1.08]

Give aptazyme ON/OFF ratio for each of the items listed below.
1. U7G U8C G9C U10C U11G C12G C13A
2. U7C U8A G9A U10A U11G C12U C13A

**A:**
1. 1.1
2. 1.21
